These data points were gathered from paper PMC11249632.

Biological target: calcium-sensing receptor (Homo sapiens, UniProt P41180, R990G)
Sequence (P41180 20-1078 R990G): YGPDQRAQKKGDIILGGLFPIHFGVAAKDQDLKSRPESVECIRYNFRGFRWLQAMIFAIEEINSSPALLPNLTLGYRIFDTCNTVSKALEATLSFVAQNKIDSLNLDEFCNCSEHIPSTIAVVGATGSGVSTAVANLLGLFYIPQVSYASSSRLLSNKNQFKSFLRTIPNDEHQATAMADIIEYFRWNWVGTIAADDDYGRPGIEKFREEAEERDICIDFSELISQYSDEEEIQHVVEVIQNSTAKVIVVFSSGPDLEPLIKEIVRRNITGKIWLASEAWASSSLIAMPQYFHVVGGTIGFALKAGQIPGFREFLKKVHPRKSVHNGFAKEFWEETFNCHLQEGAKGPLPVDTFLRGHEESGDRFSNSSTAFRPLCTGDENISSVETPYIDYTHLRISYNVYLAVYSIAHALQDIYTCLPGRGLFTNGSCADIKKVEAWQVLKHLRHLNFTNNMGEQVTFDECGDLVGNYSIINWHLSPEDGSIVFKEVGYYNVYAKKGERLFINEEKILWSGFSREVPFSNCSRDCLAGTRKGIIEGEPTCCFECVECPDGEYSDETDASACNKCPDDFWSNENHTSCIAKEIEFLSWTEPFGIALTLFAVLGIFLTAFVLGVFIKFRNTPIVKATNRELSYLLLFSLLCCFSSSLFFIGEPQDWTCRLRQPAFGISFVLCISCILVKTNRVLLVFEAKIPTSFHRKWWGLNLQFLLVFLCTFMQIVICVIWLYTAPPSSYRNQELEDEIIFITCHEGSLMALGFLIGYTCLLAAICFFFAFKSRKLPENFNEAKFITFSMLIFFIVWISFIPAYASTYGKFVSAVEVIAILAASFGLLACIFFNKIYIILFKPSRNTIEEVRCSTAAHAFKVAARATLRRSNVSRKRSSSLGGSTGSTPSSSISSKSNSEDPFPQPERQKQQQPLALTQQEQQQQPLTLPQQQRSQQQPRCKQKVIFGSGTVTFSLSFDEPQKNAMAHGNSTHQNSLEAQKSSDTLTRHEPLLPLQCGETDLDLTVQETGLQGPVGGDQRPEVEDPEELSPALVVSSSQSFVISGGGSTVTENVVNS
Test: Fura-2 intracellular calcium mobilization in receptor-expressing HEK293 cells; inhibition of Ca2+-mediated activation at neutral pH (IC50 […] at pH ~[…])
pIC50: −log10 of the molar value.
endpoint: pIC50

>>> reported_result("CC(C)(Cc1ccc2ccccc2c1)NC[C@@H](O)COc1cccc(Cl)c1C#N [NPS-2143]")
"~6.30"
